Target: 5-hydroxytryptamine receptor 1E (Homo sapiens, UniProt P28566)
Sequence (P28566 whole entry): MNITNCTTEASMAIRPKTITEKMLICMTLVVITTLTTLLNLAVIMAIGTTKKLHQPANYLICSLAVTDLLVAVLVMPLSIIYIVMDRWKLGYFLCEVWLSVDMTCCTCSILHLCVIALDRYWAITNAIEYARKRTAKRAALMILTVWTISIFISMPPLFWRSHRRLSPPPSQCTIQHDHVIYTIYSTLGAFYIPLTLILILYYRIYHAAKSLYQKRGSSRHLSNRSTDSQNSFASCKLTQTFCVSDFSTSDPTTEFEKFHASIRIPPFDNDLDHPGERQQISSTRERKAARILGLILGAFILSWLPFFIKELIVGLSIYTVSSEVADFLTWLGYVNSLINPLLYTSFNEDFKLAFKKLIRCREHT
Assay: The compound was tested for its binding affinity towards cloned human 5-hydroxytryptamine 1E receptor in CHO cells using [3H]5-HT.
property: Ki

Recorded Ki of Cc1cccc(S(=O)(=O)N(C)[C@H](C)CCN2CCC(C)CC2)c1 , please.
> 15.8 µM

---

Biological target: 5-hydroxytryptamine receptor 6 (Homo sapiens)
Sequence (P50406 whole entry): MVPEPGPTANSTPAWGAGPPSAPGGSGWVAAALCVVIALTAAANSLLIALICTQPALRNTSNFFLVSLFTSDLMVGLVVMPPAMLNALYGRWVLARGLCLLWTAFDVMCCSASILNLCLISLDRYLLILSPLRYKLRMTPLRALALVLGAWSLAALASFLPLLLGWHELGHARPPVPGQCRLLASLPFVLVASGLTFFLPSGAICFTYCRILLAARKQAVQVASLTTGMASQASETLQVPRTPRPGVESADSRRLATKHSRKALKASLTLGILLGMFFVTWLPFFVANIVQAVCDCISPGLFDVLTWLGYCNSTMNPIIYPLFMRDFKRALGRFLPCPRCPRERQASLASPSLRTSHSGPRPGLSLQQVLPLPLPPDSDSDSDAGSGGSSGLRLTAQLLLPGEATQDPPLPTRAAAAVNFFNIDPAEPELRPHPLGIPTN
Test: The compound was tested for its binding affinity towards cloned human 5-hydroxytryptamine 6 receptor in HeLa cells using […].
property: Ki

Which Ki value is on record for Cc1cccc(S(=O)(=O)N(C)[C@H](C)CCN2CCC(C)CC2)c1 ?
> 15.8 µM

---

Molecular target: 5-hydroxytryptamine receptor 2C (Homo sapiens)
Sequence (P28335 whole entry): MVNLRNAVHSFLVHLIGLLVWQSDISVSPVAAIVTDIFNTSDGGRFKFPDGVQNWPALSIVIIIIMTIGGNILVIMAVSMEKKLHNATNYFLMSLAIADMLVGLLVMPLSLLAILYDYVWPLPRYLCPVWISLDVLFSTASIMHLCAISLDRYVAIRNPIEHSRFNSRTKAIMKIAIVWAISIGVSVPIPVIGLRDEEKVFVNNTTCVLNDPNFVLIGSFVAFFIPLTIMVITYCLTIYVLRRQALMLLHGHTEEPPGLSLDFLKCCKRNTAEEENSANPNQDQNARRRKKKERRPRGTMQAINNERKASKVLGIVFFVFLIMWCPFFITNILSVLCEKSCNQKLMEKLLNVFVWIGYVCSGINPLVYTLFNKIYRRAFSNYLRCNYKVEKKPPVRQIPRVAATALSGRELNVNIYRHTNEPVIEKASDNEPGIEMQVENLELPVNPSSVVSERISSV
Assay: The compound was tested for its binding affinity towards cloned human 5-hydroxytryptamine 2C receptor in HEK293 cells using [3H]mesulergine.
property: Ki

Entry Cc1cccc(S(=O)(=O)N(C)[C@H](C)CCN2CCC(C)CC2)c1 has what Ki?
> 15.8 µM

---

Target: 5-hydroxytryptamine receptor 2A (Homo sapiens, UniProt P28223)
Sequence (P28223 whole entry): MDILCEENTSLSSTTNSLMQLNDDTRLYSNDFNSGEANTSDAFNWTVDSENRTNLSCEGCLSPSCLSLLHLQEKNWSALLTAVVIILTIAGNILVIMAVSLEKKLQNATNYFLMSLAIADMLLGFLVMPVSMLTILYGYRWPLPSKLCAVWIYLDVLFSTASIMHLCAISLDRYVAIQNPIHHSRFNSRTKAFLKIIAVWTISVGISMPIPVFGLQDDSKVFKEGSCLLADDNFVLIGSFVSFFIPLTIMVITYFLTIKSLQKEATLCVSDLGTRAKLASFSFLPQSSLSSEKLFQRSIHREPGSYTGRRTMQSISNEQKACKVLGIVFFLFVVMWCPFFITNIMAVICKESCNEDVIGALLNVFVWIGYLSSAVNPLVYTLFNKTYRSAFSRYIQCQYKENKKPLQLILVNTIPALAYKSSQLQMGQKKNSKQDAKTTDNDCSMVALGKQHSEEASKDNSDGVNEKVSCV
Assay: The compound was tested for its binding affinity towards cloned human 5-hydroxytryptamine 2A receptor in HEK293 cells using [3H]-ketanserin.
pKi: −log10 of the molar value.
property: pKi

Could you tell me which pKi is on file for Cc1cccc(S(=O)(=O)N(C)[C@H](C)CCN2CCC(C)CC2)c1 ?
< 4.80

---

Molecular target: UniProt P30939
Sequence (P30939 whole entry): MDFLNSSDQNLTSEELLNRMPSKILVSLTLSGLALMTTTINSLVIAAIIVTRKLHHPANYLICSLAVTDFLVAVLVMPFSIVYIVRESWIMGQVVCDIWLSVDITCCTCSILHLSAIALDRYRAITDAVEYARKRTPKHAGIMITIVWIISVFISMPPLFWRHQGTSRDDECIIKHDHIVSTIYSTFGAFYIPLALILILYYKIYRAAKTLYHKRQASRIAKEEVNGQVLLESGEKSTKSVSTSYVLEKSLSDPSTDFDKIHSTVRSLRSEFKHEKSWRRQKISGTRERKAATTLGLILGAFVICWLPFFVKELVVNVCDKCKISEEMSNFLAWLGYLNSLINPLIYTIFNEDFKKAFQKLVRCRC
Experiment: The compound was tested for its binding affinity towards cloned human 5-hydroxytryptamine 1F receptor in CHO cells using [3H]5-HT.
pKi: −log10 of the molar value.
property: pKi

Item under review: Cc1cccc(S(=O)(=O)N(C)[C@H](C)CCN2CCC(C)CC2)c1 [SB-258719] . Reported pKi?
< 5.20

---

Target: D(2) dopamine receptor (Homo sapiens, UniProt P14416)
Sequence (P14416 whole entry): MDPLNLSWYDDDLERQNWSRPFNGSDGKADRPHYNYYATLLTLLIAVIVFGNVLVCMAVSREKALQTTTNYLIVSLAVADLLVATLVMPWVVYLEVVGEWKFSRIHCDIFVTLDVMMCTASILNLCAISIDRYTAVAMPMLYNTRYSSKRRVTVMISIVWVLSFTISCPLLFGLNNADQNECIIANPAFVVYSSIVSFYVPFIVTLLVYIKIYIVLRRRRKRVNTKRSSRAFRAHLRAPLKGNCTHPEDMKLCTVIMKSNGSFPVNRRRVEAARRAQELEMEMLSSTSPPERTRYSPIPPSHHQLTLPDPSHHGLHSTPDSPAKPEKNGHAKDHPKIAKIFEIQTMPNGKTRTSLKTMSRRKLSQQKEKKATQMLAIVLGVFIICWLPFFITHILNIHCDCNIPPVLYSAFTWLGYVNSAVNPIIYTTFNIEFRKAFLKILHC
Assay: The compound was tested for its binding affinity towards cloned human Dopamine receptor D2 in CHO cells using [125I]iodosulpiride.
property: pKi
// pKi: -log10(molar conc.)

Query (compound): Cc1cccc(S(=O)(=O)N(C)[C@H](C)CCN2CCC(C)CC2)c1 [SB-258719] ; field requested: pKi
5.40
